Catalogue of HsPDF %I 100uM values
- system: HsPDF (Homo sapiens)
- Construct: A 63 amino acid N-terminally truncated human peptide deformylase (HsPDF); 6His (C); made in house; host or cells: E. coli BL21 (DE3), co-transformed with the GroES/EL chaperone plasmid
- assayOverview: HsPDF %I 100uM
- Procedure: Table printed on a drawing sheet, Figure 5 Head of the field: HsPDF %I 100uM Footnotes: -26 124 % inhibition The patent's description of the figure: FIG. 5. Where the first naming reader finds the target: head: HsPDF %I 100uM
Field format: number, assumed %I, no unit text.

**Query** # value lookup — system HsPDF (Homo sapiens), readout HsPDF %I 100uM, item COc1cc(C(=O)c2coc3ccc(O)cc23)cc(OC)c1OC
**Result** 31

**Query** Let us now turn to COc1ccc(C(=O)c2coc3c2C(=O)C(=O)c2ccccc2-3)cc1OC
**Result** 36

**Query** Let us now turn to COc1cc(C(=O)c2coc3c(Cl)c(Cl)c(O)cc23)cc(OC)c1OC
**Result** 18

**Query** Let us now turn to COc1ccc(C(=O)c2coc3c(Cl)cc(O)c(Cl)c23)cc1 [SKC-BF-Int10E]
**Result** 9

**Query** Let us now turn to COc1ccc(C(=O)c2coc3cc(Br)c(O)cc23)cc1
**Result** -5

**Query** Let us now turn to COc1ccc(C(=O)c2coc3c(Cl)c(Cl)c(O)cc23)cc1OC
**Result** -21

**Query** Let us now turn to COc1cc(C(=O)c2coc3c(Br)c(Br)c(O)cc23)cc(OC)c1OC
**Result** 5

**Query** Let us now turn to COc1ccc(C(=O)c2coc3ccc(O)cc23)cc1OC
**Result** 8

**Query** Let us now turn to COc1ccc(C(=O)c2coc3c(Br)cc(O)c(Br)c23)cc1
**Result** -9
